I'd appreciate it if you could supply PBM binding z-score values for the items below.
System: FXR:RXRa (NR concentration 270 nM, RXRa partner concentration 90 nM)
Assay: PBM binding z-score (relative to random genomic background probes); higher = stronger binding; sequences stand for … in GC…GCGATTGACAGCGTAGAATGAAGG
API doc: respond with a numeric literal and nothing else, no unit.

Exercise: Bench note: what PBM binding z-score did `AAAGACAGGTGATGAAGGTAACTCAGGCTATCAT` show?
Key: -0.191

Exercise: Bench note: what PBM binding z-score did `CAAACTAGGTCCCAGAGGTCAAAGTCCGTGCGTA` show?
Key: 4.91

Exercise: Bench note: what PBM binding z-score did `GCATATAGGTAAAACAAGGTGAAAGTCCGATTGT` show?
Key: 1.15

Exercise: Bench note: what PBM binding z-score did `TCTTATAGATCAGCAGGTTAAGAAAGCTGGCCAA` show?
Key: 0.0686

Exercise: Bench note: what PBM binding z-score did `AGAAAGAGGTTAAGATCAGGGAAACAGAATACAT` show?
Key: 2.5

Exercise: Bench note: what PBM binding z-score did `GCAGACAGGCGAAACGCAGGTAACTCAGGGTGGC` show?
Key: -0.64

Exercise: Bench note: what PBM binding z-score did `CCTAGCATGCCAATCTGGGTCACTCAAGGCTTGA` show?
Key: 0.636

Exercise: Bench note: what PBM binding z-score did `CCTATTAGTTGACCATAAGGGCAACAGAAGCTCG` show?
Key: 0.832

Exercise: Bench note: what PBM binding z-score did `TCGAGTAGGTTAGTCGGAGCATTCAGCCAACATA` show?
Key: -0.453

Exercise: Bench note: what PBM binding z-score did `AGTCAAAGTTCATCTAGGTAACGTACGATATGCT` show?
Key: 6.96

Exercise: Bench note: what PBM binding z-score did `CGAACGAGGGCATGAGTAGATAGCAAATGCCGAT` show?
Key: 0.0959

Exercise: Bench note: what PBM binding z-score did `GCTGCTAGGTCAACTGATGGTCGGCTAAAGCTCG` show?
Key: 3.88

Exercise: Bench note: what PBM binding z-score did `TCTGCTAGGTCAACGATGGACAGCTAATCTGCTA` show?
Key: 3.08

Exercise: Bench note: what PBM binding z-score did `TATACAGGGTCAAAGGCCAGAGGACGAATGTCGA` show?
Key: 7.18

Exercise: Bench note: what PBM binding z-score did `CAAACTAGGTCAAGAGCTCAAAGTCCGCTTCCCG` show?
Key: 3.7

Exercise: Bench note: what PBM binding z-score did `GCTTACGGGTCAAAGGTTATAGGATGAATAGAAT` show?
Key: 7.58

Exercise: Bench note: what PBM binding z-score did `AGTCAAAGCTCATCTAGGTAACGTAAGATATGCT` show?
Key: -0.387

Exercise: Bench note: what PBM binding z-score did `CGTCAAAGTTCAACTATGGTAACGTAAAGCACGC` show?
Key: 6.59

Exercise: Bench note: what PBM binding z-score did `ATATGTAGGTTAAGGGTCGTTCAGGTTGGTTCGC` show?
Key: 2.74

Exercise: Bench note: what PBM binding z-score did `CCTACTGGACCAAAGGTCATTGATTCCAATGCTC` show?
Key: 4.9

Exercise: Bench note: what PBM binding z-score did `CGAACTAGGTCAAGGTCAAAGTCGGTTTGTGCCA` show?
Key: 6.55

Exercise: Bench note: what PBM binding z-score did `GCTATTAGTTGAAAGGGCATCCGAATGATTCTCG` show?
Key: 0.204

Exercise: Bench note: what PBM binding z-score did `CTGACTGGGGCAAGGTTACCATAACGCACAGCCA` show?
Key: 0.457

Exercise: Bench note: what PBM binding z-score did `GCAGACAGGTGACACGCAGGTAACTCAGGGTGGC` show?
Key: -0.0725

Exercise: Bench note: what PBM binding z-score did `TCTAGTTGGTCACGGAGGTCAAACACGACGGGTA` show?
Key: 4.19

Exercise: Bench note: what PBM binding z-score did `ATAAGTAGGTTAAGGGTCATTCAGGTTGGTTCGC` show?
Key: 4.91
